Where do the numbers come from? From patent US20240182593A1.

Measured koff of individual entries
Target: T1, human OX40 protein (Sino Biological, Cat. 10481-H08H) (human, UniProt P43489 29-216)
T1 construct: Bought recombinant protein; also called CD134; TNFRSF4
T1 sequence (looked up): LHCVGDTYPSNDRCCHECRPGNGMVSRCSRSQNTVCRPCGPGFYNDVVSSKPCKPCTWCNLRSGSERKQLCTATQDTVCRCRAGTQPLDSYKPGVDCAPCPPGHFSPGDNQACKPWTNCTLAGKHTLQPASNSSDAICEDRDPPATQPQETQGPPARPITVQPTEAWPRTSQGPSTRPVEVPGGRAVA
Test: SPR (BIACORE T200), antibody captured on protein A chip, human OX40 as analyte, 1:1 model
// return numeric value only (unit: s⁻¹, not printed)

{"columns": ["BINDER", "REPORTED VALUE"],
 "data": [
  ["O35 (antibody, V domains shown) VH: EVQLLESGGGLVQPGGSLRLSCAASGFTFSDYSMSWVRQAPGKGLEWVSAISSDGGSTYYADSVKGRFTISRDNSKNTLYLQMNSLRAEDTAVYYCARRWQTFDYWGQGTLVTVSS VL: QSVLTQPPSASGTPGQRVTISCTGSSSNIGSNAVSWYQQLPGTAPKLLIYHDSHPPSGVPDRFSGSKSGTSASLAISGLRSEDEADYYCGAWDSSLSGYVFGGGTKLTVLG", 0.000203]
]}

Moving on to another binder below.
Input line: Please report the recorded koff for O32 (antibody, V domains shown) VH: EVQLLESGGGLVQPGGSLRLSCAASGFTFSSYSMSWVRQAPGKGLEWVSVISSGGGSTYYADSVKGRFTISRDNSKNTLYLQMNSLRAEDTAVYYCARHWRYFDYWGQGTLVTVSS VL: QSVLTQPPSASGTPGQRVTISCSGSSSNIGNNYVSWYQQLPGTAPKLLIYADSKRPSGVPDRFSGSKSGTSASLAISGLRSEDEADYYCGAWDSSLSGYVFGGGTKLTVLG .
Output line: 4.13e-05
